assay: qHTS Assay for Inhibitors of the ERK Signaling Pathway using a Homogeneous Screening Assay; details: HEK293-V1b, vasopressin-stimulated pERK AlphaScreen; series mostly up to 57.5 µM; further: nearly all actives have a fitted effect of over 55% in size
About 710 (0.99%) of roughly 72,000 compounds were called active. Another 7% or so got no clear call; they are omitted. The call rests on the fitted dose curve; in most records, active means well fitted inhibition curve with a large enough effect; inconclusive means small, poorly fitted or top-dose-only effect; inactive means no such curve, though single readings can be large or run the other way. The entries come from a sample that favours actives as a whole.
Outcome field: choose from 1.0 (active), 0.0 (inactive)

How was Oc1ccc(O)c2c(O)cccc12 classified in this test? 0.0

Now this one: CC1=C(/C=C/C(C)=C/C=C/C(C)=C/C=C/C=C(C)/C=C/C=C(C)/C=C/C2=C(C)CCCC2(C)C)C(C)(C)CCC1 0.0

Same again, this time with O=C(c1ccco1)N1CCN(C(=O)C2CC(c3ccc(Cl)c(Cl)c3)=NO2)CC1 (stereo not given) 1.0

Follow-up item: CC1=C(C(=O)OCc2ccccc2)C(c2ccc(C(F)(F)F)cc2)NC(=O)N1CCCCCC(=O)O (stereo not given) 0.0

Same lookup for N#Cc1cccc(-c2ccc3ncnc(NCc4cccs4)c3c2)c1 , please. 0.0
